experiment: PAMPA-BBB permeability; type: in vitro ADME; conditions: pH 7.4, from the extract or as a pure compound, bound stated, read-out: Pe (effective permeability, PAMPA-BBB)
measure: Papp at 12.5 µg/mL

**Q:** Identify measured Papp at 12.5 µg/mL associated with CC(=O)C1=C(O)C=C2Oc3c(C(C)=O)c(O)c(C)c(O)c3C2(C)C1=O (single isomer, unassigned; (-)) [(−)-Usnic acid, (−)-usnic acid]
**A:** > 1.5 ×10⁻⁶ cm/s

###

assay: PAMPA-BBB permeability; format: in vitro ADME; conditions: pH 7.4, Pe × 10^−6 (cm/s) t = 4 h
measure: Papp at 4 h, 12.5 µg/mL (×10⁻⁶ cm/s)
Respond numerically; units are ×10⁻⁶ cm/s and should not be typed.

**Q:** Using the record for "COc1cc(C)c(C(=O)Oc2cc(C)c(C(=O)O)c(O)c2)c(O)c1" , state its measured Papp at 4 h, 12.5 µg/mL.
**A:** 8.6

###

assay: PAMPA-BBB permeability; type: in vitro ADME; conditions: pH 7.4, Pe (effective permeability, PAMPA-BBB)
measure: Papp at 12.5 µg/mL

>>> df
                                   compound               val
0  Cc1cc(O)c(C=O)c2c1C(=O)Oc1c(CO)c(O)c3c(c1O2)C(O)OC3=O (centres unmarked)  < 0.5 ×10⁻⁶ cm/s

Consider now this further compound.
**Q:** Give Papp at 12.5 µg/mL for the following compound: "COc1cc(C)c(C(=O)Oc2cc(C)c(C(=O)O)c(O)c2)c(O)c1"
**A:** > 1.5 ×10⁻⁶ cm/s
